Data credit: PubChem BioAssay (EPA / NIEHS)

Read-out: flavin-containing dimethylaniline monooxygenases 3 (FMO3), FMO3 (gene 2328)
Assay: LTEA_HepaRG_FMO3: Life Technologies and Expression Analysis (LTEA) Assay for flavin-containing dimethylaniline monooxygenases 3 (FMO3) using HepaRG (AID 2283453);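 on AC50: differentiated human HepaRG liver cells in serum-free induction medium; FMO3 transcript by TaqMan qRT-PCR normalized to ACTB GAPDH and POLR2A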
Settings: mRNA level, 48 h; actives raise or lower the signal
Active and inactive are the calls of the source. How the source made its calls: active means hit-call score of the fitted dose curve at least 0.9, where 1 is the maximum; inactive means score below 0.9.
PROPERTY_LABEL: AC50

> print(dat)
                                    molecule  property.label        measurement
 1                    c1ccc2c(c1)Cc1ccccc1-2            AC50           inactive
 2                    c1ccc2c(c1)ccc1ccccc12            AC50           inactive
 3  CCc1ccc(CCOc2ccc(CC3SC(=O)NC3=O)cc2)nc1 (centres undefined)            AC50   78.7 µM (active)
 4        COCC(C)OCC(C)O (centres undefined)            AC50           inactive
 5    CC(C)CCCCCCOC(=O)CCCCC(=O)OCCCCCCC(C)C            AC50           inactive
 6  CN1CCN(c2ccccc2/C=C2\SCCN(c3ccc(Cl)c(Cl)c3)C2=O)CC1            AC50     50 µM (active)
 7                                  CCCCOCCO            AC50           inactive
 8  C#C[C@]1(O)CC[C@H]2[C@@H]3CCC4=CC(=O)CC[C@@H]4[C@H]3CC[C@@]21C            AC50           inactive
 9                     CCCCCCCCCCCCN1CCCC1=O            AC50           inactive
10   OC1CCC(C2CCCCC2)CC1 (centres undefined)            AC50           inactive
11               CC(O)CO (centres undefined)            AC50           inactive
12  C[C@@H]1C[C@H]2[C@@H]3CCC4=CC(=O)C=C[C@]4(C)[C@@]3(F)[C@@H](O)C[C@]2(C)[C@@]1(O)C(=O)COP(=O)(O)O            AC50           inactive
13  O=C(O)Cc1cc(I)c(Oc2cc(I)c(O)c(I)c2)c(I)c1            AC50   58.1 µM (active)
14  CC[C@H](c1ccc(O)cc1)[C@@H](CC)c1ccc(O)cc1            AC50   79.9 µM (active)
15  CCCOc1sc(C(=O)N2CCC(c3cc(CN)ccc3F)CC2)c(C)c1Br            AC50           inactive
16  CC(C)(C)CC(C)(C)c1ccc(O)c(-n2nc3ccccc3n2)c1            AC50   77.6 µM (active)
17   CC[C@H](C)[C@@H](C(=O)O)n1sc2ccccc2c1=O            AC50           inactive
18                   O=[N+]([O-])c1ccc(O)cc1            AC50           inactive
19                              Oc1cccc(O)c1            AC50           inactive
20  CC1=C(/C=C/C(C)=C/C=C/C(C)=C/C(=O)O)C(C)(C)CCC1            AC50  0.446 µM (active)
21  CCN(CC)CCNc1ccc(CNC=O)c2sc3ccc(OC)cc3c(=O)c12            AC50   34.6 µM (active)
22  Cc1oc(-c2ccccc2)nc1CCOc1ccc(C[C@H](Nc2ccccc2C(=O)c2ccccc2)C(=O)O)cc1            AC50   26.4 µM (active)
23              COCC(C)O (centres undefined)            AC50           inactive
24             CC(C)(C)c1ccc(O)c(C(C)(C)C)c1            AC50           inactive
